Assay: BET inhibitor-based combinations targeting novel dependencies in MECOM-rearranged (r) AML: OCI-AML3 cell line (AID 2202232); also: nearly all actives have a fitted effect of over 35% in size
Settings: CellTiter-Glo luminescence, 48 h; OCI-AML3 viability; series mostly up to 46 µM
Results filed as inconclusive are left out. The source made the active and inactive calls. Calls follow the shape of the dose curve; as a rule, active = well fitted inhibition curve with a large enough effect; inconclusive = small, poorly fitted or top-dose-only effect; inactive = no such curve, though single readings can be large or run the other way.
A correct response names exactly one class from 1 (yes) for active, 0 (no) for inactive

CC(=O)Nc1ccc(C(=O)Nc2ccccc2N)cc1 ... 1 (yes)

Dear colleague, could you share the recorded outcome for NCCCCCC(=O)O when you have a moment?
1 (yes)

Dear colleague, could you share the recorded outcome for C[C@@H](c1ccc2nccn2c1)n1nnc2ncc(-c3cnn(C)c3)nc21 when you have a moment?
1 (yes)

Dear colleague, could you share the recorded outcome for Nc1nc(OCc2cc(Br)cs2)c2[nH]cnc2n1 when you have a moment?
1 (yes)

Dear colleague, could you share the recorded outcome for COc1ccc(/C=C/C(=O)Nc2ccccc2C(=O)O)cc1OC when you have a moment?
0 (no)

Dear colleague, could you share the recorded outcome for COc1cc2c(cc1OC)[C@@H]1C(=O)c3ccc4c(c3O[C@@H]1CO2)C=CC(C)(C)O4 when you have a moment?
1 (yes)

Dear colleague, could you share the recorded outcome for CCCCOC(=O)NS(=O)(=O)c1sc(CC(C)C)cc1-c1ccc(Cn2ccnc2)cc1 when you have a moment?
0 (no)

----------
Assay: BET inhibitor-based combinations targeting novel dependencies in MECOM-rearranged (r) AML: OCI-AML3 cell line (AID 2202232); also: nearly all actives have a fitted effect of over 35% in size; also: potency is read from the fitted curve at half-maximal effect
Conditions: CellTiter-Glo luminescence, 48 h; OCI-AML3 viability; series mostly up to 46 µM
Records with an inconclusive call do not appear. The source made the active and inactive calls. Calls come from the whole dose curve; as a rule, active = well fitted inhibition curve with a large enough effect; inconclusive = small, poorly fitted or top-dose-only effect; inactive = no such curve, though single readings can be large or run the other way.
MEASUREMENT_NAME: Potency

Examples with answers:
Nc1cccc(-c2cc3c(Oc4cccc(O)c4)ncnc3[nH]2)c1 ... 13.2 µM (active)
CC[C@@H]1C(=O)N(C)c2cnc(Nc3ccc(C(=O)NC4CCC(N5CCN(CC6CC6)CC5)CC4)cc3OC)nc2N1C(C)C (some centres undefined) ... 0.059 µM (active)

Shifting focus to the compound that follows.
The compound listed as CC(C)c1cc(C(C)C)c(CC(=O)NS(=O)(=O)Oc2c(C(C)C)cccc2C(C)C)c(C(C)C)c1 has a reported Potency of 10.5 µM (active)

----------
Item-by-item account of activation
Biological target: Cellular tumor antigen p53 (Homo sapiens) (UniProt P04637)
Sequence (P04637 whole entry, looked up): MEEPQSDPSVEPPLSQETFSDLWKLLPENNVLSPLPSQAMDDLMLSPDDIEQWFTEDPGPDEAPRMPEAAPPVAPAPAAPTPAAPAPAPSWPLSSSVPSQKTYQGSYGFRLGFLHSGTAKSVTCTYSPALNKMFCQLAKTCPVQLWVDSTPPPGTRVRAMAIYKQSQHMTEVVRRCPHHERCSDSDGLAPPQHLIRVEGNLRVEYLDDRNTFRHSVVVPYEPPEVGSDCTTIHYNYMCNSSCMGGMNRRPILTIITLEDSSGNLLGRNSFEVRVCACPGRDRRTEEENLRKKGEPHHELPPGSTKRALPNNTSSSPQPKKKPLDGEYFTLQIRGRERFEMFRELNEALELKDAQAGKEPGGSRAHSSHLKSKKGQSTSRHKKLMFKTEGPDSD
Assay: Primary qHTS for small molecule compounds that upregulate eGFP-tagged delta133p53alpha (in N-terminal) cells. (AID 2060322);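 also: cells pre-induced with doxycycline then dosed without doxycycline; 0% = DMSO vehicle and 100% = reference activator; nearly all actives have a fitted effect of over 75% in size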
Conditions: NCI-H358 eGFP-delta133p53alpha fluorescence, 24 h; stronger effect = higher value
Records with an inconclusive call do not appear. Active and inactive are the calls of the source. Calls come from the whole dose curve; as a rule, active = well fitted activation curve with a large enough effect; inconclusive = small, poorly fitted or top-dose-only effect; inactive = no such curve, though single readings can be large or run the other way.

Examples with answers:
COc1cc2c(cc1O)C1(OC)Cc3ccc4c(c3C1N(C)CC2)OCO4 (stereo not given) ... 20.5% (inactive)
O=C(O)Cc1ccc2oc(-c3ccc(NC(=O)/C=C/c4ccc(Br)cc4)c(F)c3)nc2c1 ... 25.8% (inactive)
COC(=O)C[C@H]1C(C)(C)[C@H](OC(=O)C(C)C)[C@@]2(O)C(=O)[C@]1(C)C1CC[C@]3(C)C(CC(=O)O[C@H]3c3ccoc3)[C@]13O[C@@H]32 (stereo not given in full) ... -17.6% (inactive)
CCOCCOC(=O)/C=C/c1ccc(OC)cc1 ... -3.95% (inactive)

The compound listed as NC(=O)c1c(OCc2c(F)cc(Br)cc2F)nsc1NC(=O)NCCCCN1CCCC1 has a reported activation of 9.77% (inactive)
